Recorded values, source paper PMC12703733.

Type: cell-based
Settings: Cell viability (%)
Bridge positions count the residues as written; N and C are the ends. Square brackets hold non-standard residues; d marks the D form. Peptide text beside a SMILES is read from it. Pro(cis-4-guanidino) = NC(N)=N[C@@H]1CN[C@H](C(=O)O)C1; Phe(4-guanidino) = N=C(N)Nc1ccc(C[C@H](N)C(=O)O)cc1
test readout: viability at 2 h, 6.25 µM (%)
Give bare numbers, in %.

Reference set, count: 2
CC[C@H](C)[C@H](NC(=O)[C@H](CCCNC(=N)N)NC(=O)[C@H]1CCC(=O)NCCCC[C@H](NC(=O)[C@H](Cc2ccccc2)NC(=O)[C@H](Cc2c[nH]c3ccccc23)NC(=O)[C@@H]2C[C@H](NC(=N)N)CN2C(=O)[C@@H](NC(=O)[C@@H](N)Cc2ccccc2)C(C)C)C(=O)N[C@@H](CCCCN)C(=O)N[C@@H](Cc2ccccc2)C(=O)N[C@H](CC(C)C)C(=O)N1)C(=O)N[C@@H](CC(C)C)C(N)=O [Peptide 7, FV(4-guanidino)PWF[KKFle]RIL] (H-FV[Pro(cis-4-guanidino)]WFKKF[dL][dE]RIL-NH2; lactam 6-10)
117
CC[C@H](C)[C@H](NC(=O)[C@H](CCCNC(=N)N)NC(=O)[C@H]1CCC(=O)NCCCC[C@H](NC(=O)[C@H](Cc2ccccc2)NC(=O)[C@H](Cc2c[nH]c3ccccc23)NC(=O)[C@@H]2CCCN2C(=O)[C@@H](NC(=O)[C@@H](N)Cc2ccc(NC(=N)N)cc2)C(C)C)C(=O)N[C@@H](CCCCN)C(=O)N[C@@H](Cc2ccccc2)C(=O)N[C@H](CC(C)C)C(=O)N1)C(=O)N[C@@H](CC(C)C)C(N)=O [Peptide 6, (p-guanidino)FVPWF[KKFle]RIL] (H-[Phe(4-guanidino)]VPWFKKF[dL][dE]RIL-NH2; lactam 6-10)
119

### Prompt Any idea what its viability at 2 h, 6.25 µM is? The compound is CC[C@H](C)[C@H](NC(=O)[C@H](CCCNC(=N)N)NC(=O)[C@H]1CCCCNC(=N)NCCCC[C@H](NC(=O)[C@H](Cc2ccccc2)NC(=O)[C@H](Cc2c[nH]c3ccccc23)NC(=O)[C@@H]2CCCN2C(=O)[C@@H](NC(=O)[C@@H](N)Cc2ccccc2)C(C)C)C(=O)N[C@@H](CCCCN)C(=O)N[C@@H](Cc2ccccc2)C(=O)N[C@H](CC(C)C)C(=O)N1)C(=O)N[C@@H](CC(C)C)C(N)=O [Peptide 12, FVPWF{KKFlk}RIL]
### Response 104

====

Assay: circular dichroism
Conditions: water; pH ns; 25 °C; 150 uM
Bridge positions count the residues as written; N and C are the ends. Square brackets hold non-standard residues; d marks the D form. Peptide text beside a SMILES is read from it. * marks the point of attachment. Pro(cis-4-guanidino) = NC(N)=N[C@@H]1CN[C@H](C(=O)O)C1; Phe(4-guanidino) = N=C(N)Nc1ccc(C[C@H](N)C(=O)O)cc1; Butanoyl(4-guanidino) = N=C(N)NCCCC(=O)*; Propanoyl(3-guanidino) = N=C(N)NCCC(=O)*
test readout: helicity (%)
Numbers only, in %.

// each listed compound needs a value for helicity
1. CC[C@H](C)[C@H](NC(=O)[C@H](CCCNC(=N)N)NC(=O)[C@H]1CCCCNC(=N)NCCCC[C@H](NC(=O)[C@H](Cc2ccccc2)NC(=O)[C@H](Cc2c[nH]c3ccccc23)NC(=O)[C@@H]2CCCN2C(=O)[C@@H](NC(=O)[C@@H](N)Cc2ccccc2)C(C)C)C(=O)N[C@@H](CCCCN)C(=O)N[C@@H](Cc2ccccc2)C(=O)N[C@H](CC(C)C)C(=O)N1)C(=O)N[C@@H](CC(C)C)C(N)=O [Peptide 12, FVPWF{KKFlk}RIL]
2. CC[C@H](C)[C@H](NC(=O)[C@H](CCCNC(=N)N)NC(=O)[C@H]1CCC(=O)NCCCC[C@H](NC(=O)[C@H](Cc2ccccc2)NC(=O)[C@H](Cc2c[nH]c3ccccc23)NC(=O)[C@@H]2CCCN2C(=O)[C@@H](NC(=O)[C@@H](N)Cc2ccc(NC(=N)N)cc2)C(C)C)C(=O)N[C@@H](CCCCN)C(=O)N[C@@H](Cc2ccccc2)C(=O)N[C@H](CC(C)C)C(=O)N1)C(=O)N[C@@H](CC(C)C)C(N)=O [Peptide 6, (p-guanidino)FVPWF[KKFle]RIL] (H-[Phe(4-guanidino)]VPWFKKF[dL][dE]RIL-NH2; lactam 6-10)
3. CC[C@H](C)[C@H](NC(=O)[C@H](CCCNC(=N)N)NC(=O)[C@H]1CCC(=O)NCCCC[C@H](NC(=O)[C@H](Cc2ccccc2)NC(=O)[C@H](Cc2c[nH]c3ccccc23)NC(=O)[C@@H]2CCCN2C(=O)[C@@H](NC(=O)[C@H](Cc2ccccc2)NC(=O)CCCNC(=N)N)C(C)C)C(=O)N[C@@H](CCCCN)C(=O)N[C@@H](Cc2ccccc2)C(=O)N[C@H](CC(C)C)C(=O)N1)C(=O)N[C@@H](CC(C)C)C(N)=O [Peptide 5, guanidino-GABA-FVPWF[KKFle]RIL] ({Butanoyl(4-guanidino)}-FVPWFKKF[dL][dE]RIL-NH2; lactam 6-10)

### Response
[63, 16, 16]

// each listed compound needs a value for helicity
1. CC[C@H](C)[C@H](NC(=O)[C@H](CCCNC(=N)N)NC(=O)[C@H]1CCC(=O)NCCCC[C@H](NC(=O)[C@H](Cc2ccc(NC(=N)N)cc2)NC(=O)[C@H](Cc2c[nH]c3ccccc23)NC(=O)[C@@H]2CCCN2C(=O)[C@@H](NC(=O)[C@@H](N)Cc2ccccc2)C(C)C)C(=O)N[C@@H](CCCCN)C(=O)N[C@@H](Cc2ccccc2)C(=O)N[C@H](CC(C)C)C(=O)N1)C(=O)N[C@@H](CC(C)C)C(N)=O [Peptide 8, FVPW(p-guanidino)F[KKFle]RIL] (H-FVPW[Phe(4-guanidino)]KKF[dL][dE]RIL-NH2; lactam 6-10)
2. CC[C@H](C)[C@H](NC(=O)[C@H](CCCNC(=N)N)NC(=O)[C@H]1CCC(=O)NCCCC[C@H](NC(=O)[C@H](Cc2ccccc2)NC(=O)[C@H](Cc2c[nH]c3ccccc23)NC(=O)[C@@H]2CCCN2C(=O)[C@@H](NC(=O)[C@H](Cc2ccccc2)NC(=O)CCNC(=N)N)C(C)C)C(=O)N[C@@H](CCCCN)C(=O)N[C@@H](Cc2ccccc2)C(=O)N[C@H](CC(C)C)C(=O)N1)C(=O)N[C@@H](CC(C)C)C(N)=O [Peptide 4, guanidino-βAla-FVPWF[KKFle]RIL] ({Propanoyl(3-guanidino)}-FVPWFKKF[dL][dE]RIL-NH2; lactam 6-10)
3. CC[C@H](C)[C@H](NC(=O)[C@H](CCCNC(=N)N)NC(=O)[C@H]1CCC(=O)NCCCC[C@H](NC(=O)[C@H](Cc2ccccc2)NC(=O)[C@H](Cc2c[nH]c3ccccc23)NC(=O)[C@@H]2C[C@H](NC(=N)N)CN2C(=O)[C@@H](NC(=O)[C@@H](N)Cc2ccccc2)C(C)C)C(=O)N[C@@H](CCCCN)C(=O)N[C@@H](Cc2ccccc2)C(=O)N[C@H](CC(C)C)C(=O)N1)C(=O)N[C@@H](CC(C)C)C(N)=O [Peptide 7, FV(4-guanidino)PWF[KKFle]RIL] (H-FV[Pro(cis-4-guanidino)]WFKKF[dL][dE]RIL-NH2; lactam 6-10)
4. CC[C@H](C)[C@H](NC(=O)[C@H](CCCNC(=N)N)NC(=O)[C@H]1CCC(=O)NCCCC[C@H](NC(=O)[C@H](Cc2ccccc2)NC(=O)[C@H](Cc2c[nH]c3ccccc23)NC(=O)[C@@H]2CCCN2C(=O)[C@@H](NC(=O)[C@@H](N)Cc2ccccc2)C(C)C)C(=O)N[C@@H](CCCNC(=N)N)C(=O)N[C@@H](Cc2ccccc2)C(=O)N[C@H](CC(C)C)C(=O)N1)C(=O)N[C@@H](CC(C)C)C(N)=O [Peptide 9, FVPWF[KRFle]RIL] (H-FVPWFKRF[dL][dE]RIL-NH2; lactam 6-10)

### Response
1. 7
2. 12
3. 1
4. 11

### Prompt Any idea what its helicity is? The compound is CC[C@H](C)[C@H](NC(=O)[C@H](CCCNC(=N)N)NC(=O)[C@H]1CCC(=O)NCCCC[C@H](NC(=O)[C@H](Cc2ccccc2)NC(=O)[C@H](Cc2c[nH]c3ccccc23)NC(=O)[C@@H]2CCCN2C(=O)[C@@H](NC(=O)[C@@H](N)Cc2ccccc2)C(C)C)C(=O)N[C@@H](CCCCN)C(=O)N[C@@H](Cc2ccccc2)C(=O)N[C@H](CC(C)C)C(=O)N1)C(=O)N[C@@H](CC(C)C)C(N)=O [Peptide 2, FVPWF[KKFle]RIL] (H-FVPWFKKF[dL][dE]RIL-NH2; lactam 6-10)
### Response 7
